Recorded values, source patent US6423727B1.

measurementLabel: melting point

Example entries and their recorded answers appear below.
CC(C)C[C@H](S)C(=O)NC1(C(=O)NC(Cc2ccc(-c3ccccc3O)cc2)C(=O)O)CCCC1 (stereo in doubt) :: 215 to 217 °C
CC(C)[C@H](S)C(=O)NC1(C(=O)N[C@@H](Cc2ccc(-c3ccccc3F)cc2)C(=O)O)CCCC1 (stereo in doubt) :: 171 to 173 °C
CC(C)C[C@H](S)C(=O)NC1(C(=O)NC(Cc2ccc(-c3cncnc3)cc2)C(=O)O)CCCC1 (stereo in doubt) :: 192 to 195 °C

// for each compound in input: emit melting point
1. CC(C)[C@H](S)C(=O)NC1(C(=O)N[C@@H](CC2CCC(C3CCCCC3)CC2)C(=O)O)CCCC1 (stereo in doubt)
2. COc1cccc(-c2ccc(CC(NC(=O)C3(NC(=O)[C@@H](S)C(C)C)CCCC3)C(=O)O)cc2)c1 (stereo in doubt)
3. Cc1c(CC(NC(=O)C2(NC(=O)C(S)CC(C)C)CCCC2)C(=O)O)oc2c(F)c(F)c(F)c(F)c12 (stereo not shown)

209 to 210 °C
159 to 160 °C
115 to 117 °C

Note to self: melting point recorded for CC[C@H](C)C(S)C(=O)NC1(C(=O)N[C@@H](Cc2ccc(-c3ccsc3)cc2)C(=O)O)CCCC1 (stereo in doubt) was 99 to 101 °C
